protocol: Cell Viability - LYMP2-010 (AID 981);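 also: cells exposed to compound for 24 hours at 37 °C; nearly all actives have a fitted effect of over 55% in size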
condition set: LYMP2-010 lymphoblastoid cell viability, qHTS; series mostly up to 92.2 µM
Inconclusive results are not listed. Calls of active or inactive are those of the source. Calls follow the shape of the dose curve; as a rule, active = well fitted cell-killing curve with a large enough effect; inconclusive = small, poorly fitted or top-dose-only effect; inactive = flat fitted curve, though single readings scatter.
Please state which outcome applies, choosing from active, inactive

Assay result, entry Cc1ccc(O)c(N)c1 — outcome? active

For CCCCC(CC)COCCCN (centres undefined) , what call appears in the results of this test? inactive

So what was the verdict on O=C(OCC1CO1)C1CCCCC1C(=O)OCC1CO1 (centres undefined) in this test? active

Status in this test for c1ccc2c(c1)ccc1ccccc12 ? inactive

Please state the recorded outcome for this molecule: COc1ccc([N+](=O)[O-])cc1N inactive

What classification did CCCCCCCC/C=C\CCCCCCCC(=O)N(CCO)CCO end up with in this test? inactive

What did the test return for CC(=O)OC(C(=O)c1ccccc1)c1ccccc1 (centres undefined) ? inactive

Look up the recorded call for Cc1c(N)cccc1Cl in this test. inactive

Please indicate how the test categorized O=C1OC(=O)c2ccccc21 . inactive

Hey, what did the test say about C=Cc1cccc(C)c1 ? inactive

Outcome logged for Oc1c(Cl)cc(Cl)c(Cl)c1Cl in this assay: inactive

Record lookup: outcome of this test for N=C1C=CC(=C(c2ccc(N)cc2)c2ccc(N)cc2)C=C1 ? active

Could you kindly confirm the outcome this assay logged for Nc1cnn([C@@H]2O[C@H](CO)[C@@H](O)[C@H]2O)c(=O)n1 ? inactive

Dear colleague, could you share the recorded outcome for O=C(OCc1ccccc1)c1ccccc1O when you have a moment? inactive
